Parameter Enzyme degradation CDK2 (% remaining) @ 10 μM: see the listing below.
- measured-on: CDK2 (Homo sapiens)
- Construct: endogenous in cells; host or cells: MDA-MB-231
- protocol-notes: CDK protein degradation activity (Western blotting), CDK2
- Assay type: cell-based
- measurement-setup: MDA-MB-231 cells, 10 μM, 16 hours, Western blot
attribute-measured: Enzyme degradation CDK2 (% remaining) @ 10 μM (%)

compound: Cc1cccc(C(=O)N[C@H]2C[C@@H](n3cnc4c(NCc5ccc(OCCCN6CCN(C(=O)COc7ccc8c(c7)C(=O)N([C@H]7CCC(=O)NC7=O)C8=O)CC6)cc5)ncnc43)C2)n1 [Compound 112]
measured-on: CDK2 (Homo sapiens)
quantity-unit: %
measured-number: 40
//
compound: O=C1CC[C@H](N2C(=O)c3ccc(N4CCC(C(=O)N5CCC(CN6CCN(c7ccc(Nc8ncnc9c8ncn9C8CC(NC(=O)Cc9ccccc9)C8)cc7)CC6)CC5)CC4)cc3C2=O)C(=O)N1 (some centres unmarked) [Compound 330]
measured-on: CDK2 (Homo sapiens)
quantity-unit: %
measured-number: 40
//
compound: O=C1CC[C@H](N2C(=O)c3ccc(N4CCC(C(=O)N5CCC(N6CCN(c7ccc(Nc8ncnc9c8ncn9[C@H]8C[C@@H](NC(=O)Cc9ccccc9)C8)cc7)CC6)CC5)CC4)cc3C2=O)C(=O)N1 [Compound 343]
measured-on: CDK2 (Homo sapiens)
quantity-unit: %
measured-number: 40
//
compound: O=C1CC[C@H](N2C(=O)c3cc(F)c(N4CCC(C(=O)N5CCC(CCCN6CCN(c7ccc(Nc8ncnc9c8ncn9[C@H]8C[C@@H](NC(=O)Cc9ccccc9)C8)cc7)CC6)CC5)CC4)cc3C2=O)C(=O)N1 [Compound 459]
measured-on: CDK2 (Homo sapiens)
quantity-unit: %
measured-number: 30

----------
Enzyme degradation CDK9 (% remaining) @ 1 μM values, listed per item
- measured-on: CDK9 (Homo sapiens, UniProt P50750)
- Construct: endogenous in cells; host or cells: MDA-MB-231
- Sequence (P50750 whole entry): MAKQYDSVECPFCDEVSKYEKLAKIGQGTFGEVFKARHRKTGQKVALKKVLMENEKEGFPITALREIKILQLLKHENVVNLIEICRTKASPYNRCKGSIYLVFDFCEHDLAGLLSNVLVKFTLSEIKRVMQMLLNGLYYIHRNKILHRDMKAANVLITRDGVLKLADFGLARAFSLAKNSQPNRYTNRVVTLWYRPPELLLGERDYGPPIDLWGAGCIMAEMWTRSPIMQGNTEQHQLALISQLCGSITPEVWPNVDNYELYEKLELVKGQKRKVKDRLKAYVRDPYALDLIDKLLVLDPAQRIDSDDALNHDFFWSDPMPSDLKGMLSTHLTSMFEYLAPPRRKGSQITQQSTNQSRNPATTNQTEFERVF
- protocol-notes: CDK protein degradation activity (Western blotting), CDK9
- Assay type: cell-based
- measurement-setup: MDA-MB-231 cells, 1 μM, 16 hours, Western blot
- Method: In order to evaluate the CDK protein degradation activity of the compounds according to the present invention, the following experiment was conducted. MDA-MB-231 cells were seeded at 5×10^5 cells per well in a 6-well plate. The next day, the compounds were treated in each well to achieve final concentrations of 100 nM, 1 μM, and 10 μM. […] Cell lysates were quantified and separated by size using sodium dodecyl sulfate-polyacrylamide gel electrophoresis (SDS-PAGE). […]
attribute-measured: Enzyme degradation CDK9 (% remaining) @ 1 μM

smiles-str: CC(=O)N[C@H]1C[C@@H](n2cnc3c(NCc4ccc(N5CCN(CC6CCN(C(=O)CNc7ccc8c(c7)C(=O)N([C@H]7CCC(=O)NC7=O)C8=O)CC6)CC5)cc4)ncnc32)C1
result: 10%

smiles-str: O=C1CC[C@H](N2C(=O)c3ccc(N4CCC(C(=O)N5CCN(CCCC6CCN(c7ccc(Nc8ncnc9c8ncn9[C@H]8C[C@@H](NC(=O)Cc9ccccc9)C8)cc7)CC6)CC5)CC4)cc3C2=O)C(=O)N1
result: 0%

smiles-str: Cc1cccc(C(=O)N[C@H]2C[C@@H](n3cnc4c(NCc5ccc(OCC6CCN(C(=O)COc7ccc8c(c7)C(=O)N([C@H]7CCC(=O)NC7=O)C8=O)CC6)cc5)ncnc43)C2)n1
result: 0%

----------
- measured-on: CDK2 (Homo sapiens)
- Construct: endogenous in cells; host or cells: MDA-MB-231
- protocol-notes: CDK protein degradation activity (Western blotting), CDK2
- Type: cell-based
- measurement-setup: MDA-MB-231 cells, 10 μM, 16 hours, Western blot
attribute-measured: Enzyme degradation CDK2 (% remaining) @ 10 μM (%)

molecule: O=C1CC[C@H](N2C(=O)c3cccc(NCC(=O)N4CCC(CN5CCC(CNc6ncnc7c6ncn7[C@H]6C[C@@H](NC(=O)c7c(Cl)cccc7Cl)C6)CC5)CC4)c3C2=O)C(=O)N1 [Compound 170]
measured-number: 20
--
molecule: O=C1CC[C@H](N2C(=O)c3ccc(NCC(=O)N4CCC(CN5CCN(c6ccc(Nc7ncnc8c7ncn8C7CC(NC(=O)Cc8ccccc8)C7)cc6)CC5)CC4)cc3C2=O)C(=O)N1 (stereo partly shown) [Compound 177]
measured-number: 10
--
molecule: Cc1cccc(C(=O)N[C@H]2C[C@H](n3cnc4c(NCCCN5CCN(C(=O)CNc6ccc7c(c6)C(=O)N([C@@H]6CCC(=O)NC6=O)C7=O)CC5)ncnc43)C2)n1 [Compound 141]
measured-number: 60
--
molecule: O=C1CC[C@H](N2C(=O)c3cccc(OCC(=O)N4CCN(CC5CCN(c6ccc(Nc7ncnc8c7ncn8C7CC(NC(=O)Cc8ccccc8)C7)cc6)CC5)CC4)c3C2=O)C(=O)N1 (stereo partly shown) [Compound 326]
measured-number: 0
--
molecule: Cc1cccc(C(=O)N[C@H]2C[C@@H](n3cnc4c(NCCC5CCN(CC6CCN(C(=O)CNc7ccc8c(c7)C(=O)N(C7CCC(=O)NC7=O)C8=O)CC6)CC5)ncnc43)C2)n1 (stereo partly shown) [Compound 125]
measured-number: 20
--
molecule: O=C1CC[C@H](N2C(=O)c3ccc(NCC(=O)N4CCC(CN5CCC(c6ccc(Nc7ncnc8c7ncn8C7CC(NC(=O)Cc8ccccc8)C7)cc6)CC5)CC4)cc3C2=O)C(=O)N1 (stereo partly shown) [Compound 290]
measured-number: 30
--
molecule: Cc1cccc(C(=O)NC2CC(n3cnc4c(NCCC5CCN(CC6CCN(C(=O)CNc7cccc8c7C(=O)N([C@H]7CCC(=O)NC7=O)C8=O)CC6)CC5)ncnc43)C2)n1 (stereo partly shown) [Compound 123]
measured-number: 20

----------
- measured-on: CDK2 (Homo sapiens, UniProt P24941)
- Construct: endogenous in cells; host or cells: MDA-MB-231
- protocol-notes: CDK protein degradation activity (Western blotting), CDK2
- Format: cell-based
- measurement-setup: MDA-MB-231 cells, 1 μM, 16 hours, Western blot
attribute-measured: Enzyme degradation CDK2 (% remaining) @ 1 μM

smiles-str: O=C1CC[C@H](N2C(=O)c3cc(F)c(N4CCN(C5CC6(CCN(c7ccc(Nc8ncnc9c8ncn9[C@H]8C[C@@H](NC(=O)Cc9ccccc9)C8)cc7)CC6)C5)CC4)cc3C2=O)C(=O)N1
measured-on: CDK2 (Homo sapiens, UniProt P24941)
result: 0%

smiles-str: Cc1cccc(C(=O)N[C@H]2C[C@H](n3cnc4c(NCC5CCN(C(=O)CCCCCNc6ccc7c(c6)C(=O)N([C@@H]6CCC(=O)NC6=O)C7=O)CC5)ncnc43)C2)n1
measured-on: CDK2 (Homo sapiens, UniProt P24941)
result: 50%

smiles-str: O=C1CC[C@H](N2C(=O)c3ccc(N4CCC(CC(=O)N5CCN(c6ccc(Nc7ncnc8c7ncn8[C@H]7C[C@@H](NC(=O)Cc8ccccc8)C7)cc6)CC5)CC4)cc3C2=O)C(=O)N1
measured-on: CDK2 (Homo sapiens, UniProt P24941)
result: 40%

----------
- measured-on: CDK2/cyclin A (Homo sapiens, UniProt P24941)
- Construct: purchased Eurofins Scientific
- protocol-notes: CDK protein inhibition, KINOMEscan (Eurofins), CDK2/cyclin A
- Type: binding
- measurement-setup: 1 μM
Listed here: items and their measured CDK2/cyclin A inhibition (%) (at concentration of 1 μM).
attribute-measured: CDK2/cyclin A inhibition (%) (at concentration of 1 μM)

compound: Cc1cccc(C(=O)N[C@H]2C[C@H](n3cnc4c(NCC5CCN(C(=O)CCCCCNC(=O)CNc6ccc7c(c6)C(=O)N([C@@H]6CCC(=O)NC6=O)C7=O)CC5)ncnc43)C2)n1 (stereo in doubt)
measured-number: 84
//
compound: Cc1cccc(C(=O)N[C@H]2C[C@H](n3cnc4c(NCC5CCN(C(=O)CCCCCNc6ccc7c(c6)C(=O)N([C@@H]6CCC(=O)NC6=O)C7=O)CC5)ncnc43)C2)n1
measured-number: 87
//
compound: Cc1cccc(C(=O)NC2CC(n3cnc4c(NCC5CCN(C(=O)CCCCCNc6cccc7c6C(=O)N([C@@H]6CCC(=O)NC6=O)C7=O)CC5)ncnc43)C2)n1 (stereo partly drawn)
measured-number: 78
//
compound: Cc1cccc(C(=O)NC2CC(n3cnc4c(NCC5CCN(C(=O)CCCCCNC(=O)CNc6cccc7c6C(=O)N([C@@H]6CCC(=O)NC6=O)C7=O)CC5)ncnc43)C2)n1 (stereo partly drawn) [Compound 62]
measured-number: 89
//
compound: Cc1cccc(C(=O)NC2CC(n3cnc4c(NC5CCN(C(=O)CCCCCNc6cccc7c6C(=O)N([C@@H]6CCC(=O)NC6=O)C7=O)CC5)ncnc43)C2)n1 (stereo partly drawn)
measured-number: 88
//
compound: Cc1cccc(C(=O)NC2CC(n3cnc4c(NCC5CCN(C(=O)CCCCCNC(=O)CNc6cccc7c6C(=O)N([C@@H]6CCC(=O)NC6=O)C7=O)CC5)ncnc43)C2)n1 (stereo partly drawn) [Compound 2]
measured-number: 84
//
compound: Cc1cccc(C(=O)NC2CC(n3cnc4c(NC5CCN(C(=O)COCCOCCNC(=O)COc6cccc7c6C(=O)N([C@H]6CCC(=O)NC6=O)C7=O)CC5)ncnc43)C2)n1 (stereo partly drawn)
measured-number: 89
//
compound: Cc1cccc(C(=O)NC2CC(n3cnc4c(NC5CCN(C(=O)COCCOCCNC(=O)CNc6ccc7c(c6)C(=O)N([C@H]6CCC(=O)NC6=O)C7=O)CC5)ncnc43)C2)n1 (stereo partly drawn)
measured-number: 92
//
compound: Cc1cccc(C(=O)NC2CC(n3cnc4c(NC5CCN(C(=O)COCCOCCNC(=O)CNc6cccc7c6C(=O)N([C@H]6CCC(=O)NC6=O)C7=O)CC5)ncnc43)C2)n1 (stereo partly drawn)
measured-number: 90
//
compound: Cc1cccc(C(=O)NC2CC(n3cnc4c(NC5CCN(C(=O)COCCOCCNC(=O)COc6ccc7c(c6)C(=O)N([C@H]6CCC(=O)NC6=O)C7=O)CC5)ncnc43)C2)n1 (stereo partly drawn)
measured-number: 94
//
compound: Cc1cccc(C(=O)NC2CC(n3cnc4c(NC5CCN(C(=O)COCCOCCNc6ccc7c(c6)C(=O)N([C@H]6CCC(=O)NC6=O)C7=O)CC5)ncnc43)C2)n1 (stereo partly drawn)
measured-number: 78
//
compound: Cc1cccc(C(=O)NC2CC(n3cnc4c(NCC5CCN(C(=O)CCCCCNC(=O)COc6cccc7c6C(=O)N([C@@H]6CCC(=O)NC6=O)C7=O)CC5)ncnc43)C2)n1 (stereo partly drawn)
measured-number: 85
//
compound: Cc1cccc(C(=O)NC2CC(n3cnc4c(NC5CCN(C(=O)CCCCCNc6ccc7c(c6)C(=O)N([C@@H]6CCC(=O)NC6=O)C7=O)CC5)ncnc43)C2)n1 (stereo partly drawn)
measured-number: 91
//
compound: Cc1cccc(C(=O)NC2CC(n3cnc4c(NC5CCN(C(=O)COCCOCCNc6cccc7c6C(=O)N([C@H]6CCC(=O)NC6=O)C7=O)CC5)ncnc43)C2)n1 (stereo partly drawn)
measured-number: 86
//
compound: Cc1cccc(C(=O)NC2CC(n3cnc4c(NC5CCN(C(=O)CCCCCNC(=O)COc6cccc7c6C(=O)N([C@@H]6CCC(=O)NC6=O)C7=O)CC5)ncnc43)C2)n1 (stereo partly drawn)
measured-number: 84
//
compound: Cc1cccc(C(=O)NC2CC(n3cnc4c(NC5CCN(C(=O)CCCCCNC(=O)COc6ccc7c(c6)C(=O)N([C@@H]6CCC(=O)NC6=O)C7=O)CC5)ncnc43)C2)n1 (stereo partly drawn)
measured-number: 84
//
compound: Cc1cccc(C(=O)NC2CC(n3cnc4c(NCC5CCN(C(=O)CCCCCNC(=O)COc6ccc7c(c6)C(=O)N([C@@H]6CCC(=O)NC6=O)C7=O)CC5)ncnc43)C2)n1 (stereo partly drawn)
measured-number: 83
//
compound: Cc1cccc(C(=O)NC2CC(n3cnc4c(NC5CCN(C(=O)CCCCCNC(=O)CNc6cccc7c6C(=O)N([C@@H]6CCC(=O)NC6=O)C7=O)CC5)ncnc43)C2)n1 (stereo partly drawn)
measured-number: 77
